test-protocol: NCI Yeast Anticancer Drug Screen. Data for the mlh1 rad18 strain (AID 175)
recorded-conditions: S. cerevisiae mlh1 rad18 strain growth inhibition; at 50.0 µM
The panel holds about 79,000 compounds, 15% with a hit somewhere; the sample as a whole holds those more often. Calls of active or inactive are those of the source. No stated cut-off is given here; in the data, active means growth inhibition above about 70%; inactive means the rest.
Tick one outcome: active, inactive

So what was the verdict on `O=[N+]([O-])NC1=NCCN1CCCl` in this test? inactive

So what was the verdict on `C=CCOCN1c2cc(OC)c([C@@]3(C(=O)OC)C[C@@H]4CN(CCc5c3[nH]c3ccccc53)C[C@](O)(CC)C4)cc2[C@@]23CCN4CC=C[C@@](CC)([C@@H](OC(C)=O)[C@](O)(C(=O)OC)[C@H]12)[C@H]43` in this test? inactive

So what was the verdict on CCC(C)(Cl)c1ccccc1 (stereo unspecified) in this test? inactive

So what was the verdict on `[N-]=[N+]=C1C(=O)NN=C1c1ccccc1` in this test? inactive

So what was the verdict on `CN(C)CCCN1CCCCC1` in this test? inactive

So what was the verdict on `Fc1cccc2cc3cccc[n+]3cc12` in this test? inactive

So what was the verdict on `Cc1ccc(S(=O)(=O)Nc2cc(C)cc(CCN)c2C)cc1` in this test? inactive

So what was the verdict on `[Cl][Rh]([Cl])([Cl])[Cl].[NH-]CC[NH-]` in this test? inactive

So what was the verdict on `COc1ccc(/C=C(/C)[N+](=O)[O-])cc1OC` in this test? active

So what was the verdict on `O=c1[nH]cnc2c1ncn2-c1ccc(N(CCCl)CCCl)cc1` in this test? inactive

So what was the verdict on `CCOP(=O)(OCC)C(C)(C)OC(=O)NC#N` in this test? inactive

So what was the verdict on `CCOc1cc(CCNC)c2c(ccc3ccc(OC)c(O)c32)c1OC` in this test? inactive

So what was the verdict on `C1CCC(NC2CCCC2)CC1` in this test? inactive

So what was the verdict on CC12CC/C(=C3/C=CC(=O)S3)C=C1CCC1C2CCC2(C)C(O)CCC12 (stereo unspecified) in this test? inactive

So what was the verdict on COP1(=S)OCC2CCC[C@@H]2O1 (stereo partly specified) in this test? inactive

So what was the verdict on NNC(N)=NCCCC(N)C(=O)O (stereo unspecified) in this test? inactive

So what was the verdict on `CN1CCNCC1` in this test? inactive

So what was the verdict on `CCCCCCNP(=O)(OCC)OCC` in this test? inactive

So what was the verdict on `CN1CC[CH2][Sn]([Cl])([Cl])[CH2]CC1` in this test? inactive

So what was the verdict on `c1cc2c(cc1[C@@H]1OC[C@@H]3[C@H]1CO[C@H]3c1ccc3c(c1)OCO3)OCO2` in this test? inactive

So what was the verdict on `COc1cc(C)c(OP(=O)(OC)OC)cc1C` in this test? inactive

So what was the verdict on CS(=N)(=O)CCC(N)P(=O)(O)O (stereo unspecified) in this test? inactive

So what was the verdict on CC(Br)CN(CC(C)Br)c1ccc(-c2ccccc2)cc1 (stereo unspecified) in this test? inactive

So what was the verdict on `CCCC/C=C(/C)C1(CC)C(=O)NC(=O)NC1=O` in this test? inactive

So what was the verdict on `CCOP(=S)(OCC)OP(=S)(OCC)OCC` in this test? inactive

So what was the verdict on CC1NCCc2cc(O)c(O)cc21 (stereo unspecified) in this test? inactive

Just for reference, PubChem BioAssay (NCI) is where these values come from.
